Reference for the values: ChEMBL document CHEMBL4000256

# method-description: Half life in DMEM medium
# Format: physicochemical
recorded-endpoint: half-life

1. COc1cccc2c1C(=O)c1c(O)c3c(c(O)c1C2=O)C[C@@](O)(C(=O)COC(=O)c1ccc(C(=O)NCCCNc2ccc([N+](=O)[O-])c(C(F)(F)F)c2)cc1)C[C@@H]3O[C@H]1C[C@H](N)[C@H](O)[C@H](C)O1.Cl | > 24 h
